Note to self: these compounds have pIC50 reported for USP30 (Homo sapiens (Human), UniProt Q70CQ3) in various publications.
pIC50: −log10 of the molar value.

- COMPOUND: "N#Cc1ccc(-c2cc(-c3nc([C@@H]4CCCN4C#N)no3)ccn2)cc1"
  ASSAYED SYSTEM: "USP30 (Homo sapiens (Human), UniProt Q70CQ3)"
  EXPERIMENTAL VALUE: "6.00 to 7.00"
- COMPOUND: "N#CN1CC[C@H](N2CCN(c3cccc(-c4ccccn4)c3)S2(=O)=O)C1"
  ASSAYED SYSTEM: "USP30 (Homo sapiens (Human), UniProt Q70CQ3)"
  EXPERIMENTAL VALUE: "6.00 to 7.00"
- COMPOUND: "N#CN1CCCC1c1noc(-c2cccc(-c3ccc([N+](=O)[O-])cc3)c2)n1 (stereo not drawn)"
  ASSAYED SYSTEM: "USP30 (Homo sapiens (Human), UniProt Q70CQ3)"
  EXPERIMENTAL VALUE: "> 7.00"
- COMPOUND: "N#CN1CC[C@@H](NC(=O)c2ccc3c(c2)CCN3c2nccc(C3CC3)n2)C1"
  ASSAYED SYSTEM: "USP30 (Homo sapiens (Human), UniProt Q70CQ3)"
  EXPERIMENTAL VALUE: "> 7.00"
- COMPOUND: "N#CN1CCC(CC(=O)Nc2cc(C(F)(F)F)ccn2)C1 (stereo not drawn)"
  ASSAYED SYSTEM: "USP30 (Homo sapiens (Human), UniProt Q70CQ3)"
  EXPERIMENTAL VALUE: "6.00 to 7.00"

Here's the next entry for you.
Summary line: COc1ccc(C#N)cc1-c1cccc(-c2nc(C3CCCN3C#N)no2)c1 (stereo not drawn) , USP30 (Homo sapiens (Human), UniProt Q70CQ3), reported pIC50 = 6.00 to 7.00
